system: recombinant human ULK1 protein (1-649) (Homo sapiens)
Construct: recombinant human ULK1 protein (1-649, SignalChem #U01-11G); purchased SignalChem U01-11G
Sequence (O75385 1-649): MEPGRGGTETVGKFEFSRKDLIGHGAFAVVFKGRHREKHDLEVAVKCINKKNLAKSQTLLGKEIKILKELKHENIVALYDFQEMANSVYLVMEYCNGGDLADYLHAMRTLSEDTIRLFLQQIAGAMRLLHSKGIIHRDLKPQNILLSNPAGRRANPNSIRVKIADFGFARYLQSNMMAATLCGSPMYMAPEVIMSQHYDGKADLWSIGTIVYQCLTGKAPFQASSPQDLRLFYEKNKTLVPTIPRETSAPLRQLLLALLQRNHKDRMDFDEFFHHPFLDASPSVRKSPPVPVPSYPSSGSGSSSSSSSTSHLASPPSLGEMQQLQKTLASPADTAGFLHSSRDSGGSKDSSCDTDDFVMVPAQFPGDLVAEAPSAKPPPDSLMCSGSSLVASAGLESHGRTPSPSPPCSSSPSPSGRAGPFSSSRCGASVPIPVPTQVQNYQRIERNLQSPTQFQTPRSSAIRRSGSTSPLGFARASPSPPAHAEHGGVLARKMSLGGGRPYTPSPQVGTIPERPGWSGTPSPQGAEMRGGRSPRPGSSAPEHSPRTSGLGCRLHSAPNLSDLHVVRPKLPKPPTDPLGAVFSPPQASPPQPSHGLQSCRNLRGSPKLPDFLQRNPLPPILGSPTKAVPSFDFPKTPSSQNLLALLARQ
assay: ULK1 inhibition assay (ADP Glo)
Assay type: biochemical
particulars: Table 2
observable: IC50

Use the examples below as a reference point.
{"columns": ["compound", "IC50"],
 "data": [
  ["COC(=O)CN(C)C(=O)c1ccccc1Oc1nc(Nc2cc(OC)c(OC)c(OC)c2)ncc1Br [Compound B5]", "100 to 1000 nM"],
  ["COC(=O)c1ccccc1Oc1nc(Nc2cc(C)c(C)c(C)c2)ncc1Br [Compound B16]", "> 1000 nM"],
  ["COC(=O)c1ccccc1Oc1nc(Nc2ccc(O)cc2)ncc1Br [Compound B36]", "> 1000 nM"],
  ["COC(=O)c1ccccc1Oc1nc(Nc2ccc3[nH]cnc3c2)ncc1Br [Compound B22]", "> 1000 nM"],
  ["COc1cc(Nc2ncc(Br)c(Oc3ccccc3C(=O)NCCC#N)n2)cc(OC)c1OC [Compound B10]", "> 1000 nM"]
]}

Form field IC50, entry COC(=O)c1ccccc1Oc1ncnc(Nc2cc(OC)c(OC)c(OC)c2)n1 [Compound B48] : > 1000 nM

Form field IC50, entry COC(=O)c1ccccc1Oc1nc(Nc2ccc3[nH]ncc3c2)ncc1Br [Compound B26] : 100 to 1000 nM

Form field IC50, entry COC(=O)c1ccccc1Oc1nc(Nc2cccc(C(F)(F)F)c2)ncc1Br [Compound B28] : > 1000 nM
